test: Tmax in wild type FVB mouse plasma at 100 mg/kg, po
Assay type: ADME, organism-based
Parameters: dose 100 mg/kg, route oral
quantity-measured: Tmax (h)

>>> df
                                   molecule  quantity_measured  value_units  observed_result
0  COc1cc2c(cc1OC)CN(CCc1ccc(NC(=O)c3cccc4c(=O)c5cccc(OC)c5[nH]c34)cc1)CC2 [ELACRIDAR]               Tmax            h                8

---

test: Cmax in wild type FVB mouse plasma at 2.5 mg/kg, iv
Type: ADME, organism-based
Set-up: dose 2.5 mg/kg, route intravenous
quantity-measured: Cmax

                                   compound  quantity_measured  observed_result
0  COc1cc2c(cc1OC)CN(CCc1ccc(NC(=O)c3cccc4c(=O)c5cccc(OC)c5[nH]c34)cc1)CC2 [ELACRIDAR]               Cmax      0.564 µg/mL

---

test: Terminal half life in wild type FVB mouse plasma at 100 mg/kg, po
Type: ADME, organism-based
Design: dose 100 mg/kg, route oral
run-parameters: read-out: beta t1/2 (converted)
quantity-measured: half-life (h)

>>> print(df.to_string())
                               entry_smiles  quantity_measured  observed_result
0  COc1cc2c(cc1OC)CN(CCc1ccc(NC(=O)c3cccc4c(=O)c5cccc(OC)c5[nH]c34)cc1)CC2          half-life               20

---

test: Tmax in wild type FVB mouse plasma at 2.5 mg/kg, iv
Type: ADME, organism-based
Parameters: dose 2.5 mg/kg, route intravenous
quantity-measured: Tmax

>>> df
                               entry_smiles  observed_result
0  COc1cc2c(cc1OC)CN(CCc1ccc(NC(=O)c3cccc4c(=O)c5cccc(OC)c5[nH]c34)cc1)CC2           30 min

---

test: Ratio of AUC in brain to plasma in wild type FVB mouse plasma at 100 mg/kg, ip
Type: ADME, organism-based
Design: dose 100 mg/kg, route intraperitoneal
run-parameters: brain and plasma
quantity-measured: Kp

>>> print(df.to_string())
                               entry_smiles  observed_result
0  COc1cc2c(cc1OC)CN(CCc1ccc(NC(=O)c3cccc4c(=O)c5cccc(OC)c5[nH]c34)cc1)CC2             0.48

---

test: Apparent oral volume of distribution in wild type FVB mouse plasma at 100 mg/kg, ip
Assay type: ADME, organism-based
Set-up: dose 100 mg/kg
quantity-measured: Vd/F (L)

>>> df
                                   compound  quantity_measured  value_units  observed_result
0  COc1cc2c(cc1OC)CN(CCc1ccc(NC(=O)c3cccc4c(=O)c5cccc(OC)c5[nH]c34)cc1)CC2 [ELACRIDAR]               Vd/F            L             12.3

---

test: AUC (0 to last) in wild type FVB mouse plasma at 100 mg/kg, ip
Assay type: ADME, organism-based
Set-up: time 0 - last, dose 100 mg/kg, route intraperitoneal
quantity-measured: AUC(0-t) (ng·h/mL)

                                   compound  quantity_measured  value_units  observed_result
0  COc1cc2c(cc1OC)CN(CCc1ccc(NC(=O)c3cccc4c(=O)c5cccc(OC)c5[nH]c34)cc1)CC2 [ELACRIDAR]           AUC(0-t)      ng·h/mL             1060

---

test: AUC (0 to last) in wild type FVB mouse plasma at 2.5 mg/kg, iv
Type: ADME, organism-based
Design: time 0 - last, dose 2.5 mg/kg, route intravenous
quantity-measured: AUC(0-t) (ng·h/mL)

                                   compound  observed_result
0  COc1cc2c(cc1OC)CN(CCc1ccc(NC(=O)c3cccc4c(=O)c5cccc(OC)c5[nH]c34)cc1)CC2 [ELACRIDAR]             2310

---

test: Cmax in wild type FVB mouse plasma at 100 mg/kg, ip
Type: ADME, organism-based
Set-up: dose 100 mg/kg, route intraperitoneal
quantity-measured: Cmax (ng/mL)

                                   compound  quantity_measured  observed_result
0  COc1cc2c(cc1OC)CN(CCc1ccc(NC(=O)c3cccc4c(=O)c5cccc(OC)c5[nH]c34)cc1)CC2 [ELACRIDAR]               Cmax              295

---

test: Apparent plasma clearance in wild type FVB mouse plasma at 100 mg/kg, ip
Type: ADME, organism-based
Design: dose 100 mg/kg, route intraperitoneal
quantity-measured: CL/F (mL/min)

In [3]: df
Out[3]:
                               entry_smiles  quantity_measured  observed_result
0  COc1cc2c(cc1OC)CN(CCc1ccc(NC(=O)c3cccc4c(=O)c5cccc(OC)c5[nH]c34)cc1)CC2               CL/F             33.2

---

test: Apparent oral volume of distribution in wild type FVB mouse at 100 mg/kg, po
Assay type: ADME, organism-based
Parameters: dose 100 mg/kg, route oral
run-parameters: plasma
quantity-measured: Vd/F (L)

>>> print(df.to_string())
                                   compound  value_units  observed_result
0  COc1cc2c(cc1OC)CN(CCc1ccc(NC(=O)c3cccc4c(=O)c5cccc(OC)c5[nH]c34)cc1)CC2 [ELACRIDAR]            L              3.5

---

test: Terminal half life in wild type FVB mouse brain at 2.5 mg/kg, iv
Assay type: ADME, organism-based
Set-up: dose 2.5 mg/kg, route intravenous
run-parameters: read-out: beta t1/2 (converted)
quantity-measured: half-life (h)

>>> print(df.to_string())
                               entry_smiles  value_units  observed_result
0  COc1cc2c(cc1OC)CN(CCc1ccc(NC(=O)c3cccc4c(=O)c5cccc(OC)c5[nH]c34)cc1)CC2            h              1.5

---

test: Terminal half life in wild type FVB mouse plasma at 100 mg/kg, ip
Format: ADME, organism-based
Set-up: dose 100 mg/kg, route intraperitoneal
run-parameters: read-out: beta t1/2 (converted)
quantity-measured: half-life (h)

>>> print(df.to_string())
                               entry_smiles  quantity_measured  observed_result
0  COc1cc2c(cc1OC)CN(CCc1ccc(NC(=O)c3cccc4c(=O)c5cccc(OC)c5[nH]c34)cc1)CC2          half-life              4.3

---

test: Apparent oral volume of distribution in wild type FVB mouse plasma at 2.5 mg/kg, iv
Assay type: ADME, organism-based
Set-up: dose 2.5 mg/kg
quantity-measured: Vd/F

>>> df
                               entry_smiles  observed_result
0  COc1cc2c(cc1OC)CN(CCc1ccc(NC(=O)c3cccc4c(=O)c5cccc(OC)c5[nH]c34)cc1)CC2           0.17 L

---

test: Cmax in wild type FVB mouse brain at 100 mg/kg, ip
Assay type: ADME, organism-based
Parameters: dose 100 mg/kg, route intraperitoneal
quantity-measured: Cmax (µg/mL)

                                   compound  observed_result
0  COc1cc2c(cc1OC)CN(CCc1ccc(NC(=O)c3cccc4c(=O)c5cccc(OC)c5[nH]c34)cc1)CC2 [ELACRIDAR]            0.061

---

test: Tmax in wild type FVB mouse brain at 100 mg/kg, ip
Format: ADME, organism-based
Design: dose 100 mg/kg, route intraperitoneal
quantity-measured: Tmax (h)

>>> print(df.to_string())
                               entry_smiles  quantity_measured  value_units  observed_result
0  COc1cc2c(cc1OC)CN(CCc1ccc(NC(=O)c3cccc4c(=O)c5cccc(OC)c5[nH]c34)cc1)CC2               Tmax            h                4

---

test: AUC (0 to last) in wild type FVB mouse brain at 100 mg/kg, ip
Format: ADME, organism-based
Parameters: time 0 - last, dose 100 mg/kg, route intraperitoneal
quantity-measured: AUC(0-t) (ng·h/mL)

In [3]: df
Out[3]:
                               entry_smiles  value_units  observed_result
0  COc1cc2c(cc1OC)CN(CCc1ccc(NC(=O)c3cccc4c(=O)c5cccc(OC)c5[nH]c34)cc1)CC2      ng·h/mL              332
